Tested on: K4 kissing-loop RNA reporter;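 further: bound reporter read as fluorescence of individual clusters on recovered sequencing chips by microscopy, with normalized cluster intensities fitted with a binding model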
Assay name: apparent KD of K4 kissing-loop reporter; higher = weaker reporter binding
Test conditions: Eterna round: R107; input ligand: theophylline 20 uM

{"columns": ["Sequence", "Units of measure", "apparent KD of K4 kissing-loop reporter"],
 "data": [
  ["UGAUAGGACAGAAGGAGCGGAAGUGAUGUUUCCAAAAGGGUAAGGUGUCAAAAGACACCCUUCCAGGUAGGUCGCUGUCCUAUCU", "nM", 111],
  ["GGAUCCACCAGUGAUGUUGGAGAAAACUUCAAGGAUAUGACGAAAGUCAGAAGGUGGUAGACUGGGCAAAGUCCGGUCGGAUCCA [FmnA10 U29+G66]", "nM", 402],
  ["AAAUAUUCGAGUGAUGUUCGAAUAAUAUCAGAGGAUAUGCAUAAAAGCAGAAGGCUGUAUUACUUUUUGUUACGAAAUUUUAUAA [JR_SSFMNA_Sub020]", "nM", 118],
  ["AUCGUUGUCUGAGGAUAUCGGUUAUCUGUAGUGAUGUUACAGUAUAUUCAUAUUAUACUUUCUAUUCGAGAAGGCAGACUACGUA [JR_Nu_ExcFMNB_Sub020]", "nM", 74.8],
  ["AUUUAUGUUUCGGCCGCCACUCCACGUACUCAGAGAGAGUGAUGUUCUUUUUAUUAACGUCUAUGGAGGACCGGGAAGAGGUGAG [theeternabot_exclusion_KL_Trp_B_37]", "nM", 931],
  ["UCGAUAGCCAGCGAUACCAGCCCAGUGAUGUUGGGCACAUGGUUGCGGGAAAUCCUAUUGGGCCCUUGGCAGCGCUUGCAUGGGU [Anbixeza]", "nM", 107]
]}

====

Tested on: MS2 coat protein
Assay name: apparent KD of MS2 coat protein; designed switch direction (-1 OFF switch, 1 ON switch): -1; higher = weaker reporter binding
Test conditions: Eterna round: R95; input ligand: none
Reported endpoint: apparent KD of MS2 coat protein (nM)

{"columns": ["Sequence", "Subject of test", "Reported endpoint", "Units of measure", "Reported value"],
 "data": [
  ["GGUUGUUGUUUCCGUUCUUACAUGAGGAUCACCCAUGUUUCUUGUCGUGCUCGCGUUGCUCGUCUGUCUGUCUGUUG [salish99_TOv1_r3_072] (puzzle: Sensor v3, turn-off variant 1)", "MS2 coat protein", "apparent KD of MS2 coat protein", "nM", 63],
  ["AAAAAACAAGGAUAUACGAAGGAGGGUUAUCUUAAUUUUUGACAUGAGGAUCACCCAUGUAGAAGGUGUUAAAA [JR_Exclusion2_Sub011] (puzzle: Exclusion 2)", "MS2 coat protein", "apparent KD of MS2 coat protein", "nM", 156],
  ["CAAAAGGUAGGAUAUACGAAAAAAAAGGGUAGAAAAAAAACACAUGAGGAUCACCCAUGUAGAAGGACCAAAAA [salish99_ex2_r3_055] (puzzle: Exclusion 2)", "MS2 coat protein", "apparent KD of MS2 coat protein", "nM", 24.5],
  ["GAUUAUGCGAGCUUUAGGGACAUGAGGAUCACCCAUGUUCGUCUUAUUAGUCUAAAUACACUGACAUACCUAAAUCU [JMF 54] (puzzle: Sensor v3, turn-off variant 1)", "MS2 coat protein", "apparent KD of MS2 coat protein", "nM", 13.6],
  ["GGAAAGGUAGGAUAUACGAAGAAAAAGGGUAGAAUAAUAACACAUGAGGAUCACCCAUGUAGAAGGACCAAAUG [Mat - Exclusion 2 - Mod of my Tesla design - D7] (puzzle: Exclusion 2)", "MS2 coat protein", "apparent KD of MS2 coat protein", "nM", 29]
]}

====

Test system: MS2 coat protein
Assay name: apparent KD of MS2 coat protein, switch ON state; designed switch direction (-1 OFF switch, 1 ON switch): 1; higher = weaker reporter binding
Test conditions: FMN input: 0 or 200 uM; Eterna round: R93 (includes R88 designs)
Measured apparent KD of MS2 coat protein accompanies every entry in the list below.
Reported endpoint: apparent KD of MS2 coat protein (nM)

{"columns": ["Sequence", "Reported endpoint", "Reported value"],
 "data": [
  ["AAAAAAAAAGUCGAGGAUAUCCACAUGGCGACAUGAGGAUCACCCAUGUGAAGAAAAGCACAUGAGGAGAAGGCGACAAAAAAAA [Same State 2.7a (Tightrope mod)]", "apparent KD of MS2 coat protein", 32.7],
  ["AUAUAUAUAAGGUAGGAUAUACUAAAGUAAACAUGAGGAUCACCCAUGUAAAGAAAGAAACUCAUGUAGAAGGACCAUAUAUAUA [Original: 77%, More Tesla, 1]", "apparent KD of MS2 coat protein", 21.3],
  ["CUUAGACAUGAGGAUCACCCAUGUCGAACAAACAAAGGAUAUGGGAGCCGAAGACGGCUAUUAGAAGGUUGCAAAA [Anrioned]", "apparent KD of MS2 coat protein", 28],
  ["AAAAUAAAAUAAAAGGAUAUAAAAUAAAAAACAUGAGGAUCACCCAUGUGAAAACAUGAAAAAAAAAAGAAGGAAAAAUAAAAAA [SS2: 76 No MS2]", "apparent KD of MS2 coat protein", 21.3],
  ["GGAAAACAUGAGGAUCACCCAUGUAGAAAUAUGGGAGGAUAUACAAAGACGAAAGUCAAAGUAGAAGGCCUAAAAG [salish99-SS1-084]", "apparent KD of MS2 coat protein", 33.9],
  ["AAAAAAAAACGUGAGGAUAUGUGAAAAUUAACAUGAGGAUCACCCAUGUGAUAAAAAAAAAAAAAACAGAAGGUACAAAAAAAAAA [Same 2 again I have no idea]", "apparent KD of MS2 coat protein", 21.2]
]}

====

System: MS2 coat protein
Assay name: apparent KD of MS2 coat protein; designed switch direction (-1 OFF switch, 1 ON switch): -1; higher = weaker reporter binding
Test conditions: input ligand: none
Measured apparent KD of MS2 coat protein accompanies every entry in the list below.

{"columns": ["Sequence", "apparent KD of MS2 coat protein"],
 "data": [
  ["GGUCAGAUGGUAGGAUAUCCAUAUCGAGUGACCCUUUCAUAACAUGAGGAUCACCCAUGUCGGUGGGAGAAGGGCCGUACGGCG [salish99_ExNG02_R04_010] (Eterna round: R96, puzzle: Exclusion NG 2)", "0.0417 µM"],
  ["CAUGAUUGGGAAGGAUAUUGACCUAGUUAGCGCCGAGAAGGUCCCUGUCACAUGAGGAUCACCCAUGUGAGUCUGGUGUUCGAG [Ex NG1 #95] (Eterna round: R96, puzzle: Exclusion NG 1)", "0.0216 µM"],
  ["UUUAAUUUUUUUUUUUUACAAGCUUUUUGCUCGUCUUAUACAUGAGGAUCACCCAUGUGGGUAAGGGAUAAAUUAUC [JMF 37] (Eterna round: R96, puzzle: Sensor v3, turn-off variant 2)", "0.059 µM"],
  ["UAUACAAAAGAUACCUCGUGACAUGAGGAUCACCCAUGUUUUGAGGAUAUCAGACUUCAUGGUCAUGAGAAGGCAGAGCAUGAU [Tireala] (Eterna round: R96, puzzle: Exclusion NG 3)", "0.0136 µM"],
  ["AACGUCUAGGUAGGAUAUCCACCAACAGGUGGAAGGAUAUGUUCGCAGAAGGUUCGCCAACAGGCGGAGAAGGACCUACGCGUA [pwkr exNG2 2xF7 2xFMN.31] (Eterna round: R96, puzzle: Exclusion NG 2)", "0.116 µM"],
  ["GAUCCUUCUGUUAGGAUAUGCUUUGGGCUUCCGCAGCAGAAGGAACAUGAGGAUCACCCAUGUCAAAUACCAUC [salish99_bmex4_r4_503] (Eterna round: R97, puzzle: Brourd's mod of Exclusion 4)", "0.0231 µM"],
  ["AACAGGUCAGGAUAUACAUGAGGAUCACCCAUGUAGACUUCUAGUCUAUCGUGACUGUGUAGAAGGGACCUGAA [Exclusion 3 (MOD of #98 Marzena11)] (Eterna round: R97, puzzle: Exclusion 3)", "0.0401 µM"],
  ["UAAGAGUGAGGAUAUACGUCGCUGGCCCGGAUGGACGCAUGACAUGAGGAUCACCCAUGUAGAAGGCACAAAAC [Enxela Mod 14 - Jieux - Exclusion 2] (Eterna round: R97, puzzle: Exclusion 2)", "0.0297 µM"],
  ["CCAAGCUUUUUCAUUAACAACAUGAGGAUCACCCAUGUUUAAGCUAUUACUUUUGGGCUCUUUAGUGCUAGUCUUAU [JR_STOV1_Sub039] (Eterna round: R97, puzzle: Sensor, turn-off variant 1)", "0.0194 µM"],
  ["UUAUUGUAUGUAGGAUAUGCGUAUUAUUAUUGGGCAGAAGGACAUGAGGAUCACCCAUGUAUGUUGUUGUUAUAUAUUAUAUAU [Title] (Eterna round: R96, puzzle: Exclusion NG 1)", "0.0476 µM"],
  ["GGGCCCGGAGGAUAUACAAUGGGUUUGGGAAACCGGGCCCUACAUGAGGAUCACCCAUGUAGAAGGCCGGGCCC [-41, -38.9 kcal A 24%, 5b,0] (Eterna round: R97, puzzle: Exclusion 2)", "0.0342 µM"],
  ["AUUAUGUUAGGAUAUGCUUAUGGUGGAUAGUCCAAUGUGGUGCAGAAGGGACAUGAGGAUCACCCAUGUACUGA [EX4 #29] (Eterna round: R97, puzzle: Exclusion 4)", "0.0586 µM"],
  ["AAAUUAGCAAGUAGAUCCGACAUGAGGAUCACCCAUGUUAUCUGAAAGAACGCAGAAUAAUUGUGAGCUCGUCUAAA [Sensor-V1 #3] (Eterna round: R97, puzzle: Sensor, turn-off variant 1)", "0.181 µM"],
  ["UAAGUUUACCGAGGAUAUGGUUUUUCCUUUUUACCAGAAGGCGGACUCAACAUGAGGAUCACCCAUGUAUAAAGGGUAUUUGGU [JR_ExcNG1_Sub045] (Eterna round: R96, puzzle: Exclusion NG 1)", "0.054 µM"],
  ["UACAUGAGGAUCACCCAUGUUUUAUCAUGUGUAAUAAUAAUGUAGGAUAUGUAUUAUUUUAUUUAACAGAAGGACAAUAAUAAA [JMF's solution 2] (Eterna round: R96, puzzle: Exclusion NG 3)", "0.524 µM"],
  ["GUUUUCAGACGGAGAUCCUACAUGAGGAUCACCCAUGUCUCUCUUGCUAAUUGCUCGUCUUAUUCUCCUCUGUUCUC [Elimod 37 - Jieux - Sensor, turn-off variant 1] (Eterna round: R97, puzzle: Sensor, turn-off variant 1)", "0.1 µM"],
  ["UGAUCUAGCGGAGGAUAUACAUGAGGAUCACCCAUGUAAAUCGCUGAACCGUAGUUCAGCAUCAUGUAGAAGGCCGCUAGAUCU [MOD2 ENG2 3.62 by JL] (Eterna round: R96, puzzle: Exclusion NG 2)", "0.0704 µM"],
  ["GCUGGUCGAGGAUAUACAUAACGUGCUUCGGCACGAGAUCUACAUGAGGAUCACCCAUGUAGAAGGCGACCAGC [E2/10-A1] (Eterna round: R97, puzzle: Exclusion 2)", "0.018 µM"]
]}
